- methodNotes: FRG1 promoter luciferase signal modulators, primary screen, FRG1 inhibition for FSHD, cell-based, C2C12 myotubes, firefly/Renilla luciferase, luminescence (AID 1084)
- cond: higher = more signal, called active from +8 up or from −8 down
Please note: met applies when z-score is -0.3 or greater, and not met applies otherwise.

INSERT INTO assay_data (molecule, classassignment) VALUES
  ('CCCNC(=O)OC[C@H]1O[C@H](c2ccccc2)C=C[C@@H]1Oc1ccc(OC)cc1', 'met');

Enquiry: Textbook exercise: given the entry CCOC(=O)[C@H](Cc1ccccc1)NC(=O)CCC1CC(OC(=O)NCc2cccc3ccccc23)CC2(CCCC(COC(=O)NCC(c3ccccc3)c3ccccc3)O2)O1 (stereo partly specified) , state whether its z-score is greater than or equal to -0.3.
Return: met

Enquiry: Textbook exercise: given the entry CCOC(=O)[C@H](CC(C)C)NC(=O)CCC1CC(OC(=O)NCc2ccc3c(c2)OCO3)CC2(CCCC(COC(=O)NCCCN3CCCC3=O)O2)O1 (stereo partly specified) , state whether its z-score is greater than or equal to -0.3.
Return: met

Enquiry: Textbook exercise: given the entry COC(=O)CC=C[C@@H](C)[C@@H]1C=C[C@H](O)[C@@H](CO)O1 , state whether its z-score is greater than or equal to -0.3.
Return: met

Enquiry: Textbook exercise: given the entry CON=C1[C@H]2CCn3c(=O)n(-c4ccccc4)c(=O)n3[C@H]2[C@H](O)[C@@H]2O[C@H]12 , state whether its z-score is greater than or equal to -0.3.
Return: not met

Enquiry: Textbook exercise: given the entry CO[C@H]1COC(=O)[C@@H](C)COC(=O)[C@@H](OCc2ccccc2)C=C[C@@H]1C , state whether its z-score is greater than or equal to -0.3.
Return: not met

Enquiry: Textbook exercise: given the entry CON=C[C@@H](C)[C@H](OCc1ccccc1)C(C)C , state whether its z-score is greater than or equal to -0.3.
Return: met

###

- targetDesc: Dickkopf-related protein 1 (Homo sapiens) (UniProt O94907)
- Sequence (O94907 whole entry, looked up): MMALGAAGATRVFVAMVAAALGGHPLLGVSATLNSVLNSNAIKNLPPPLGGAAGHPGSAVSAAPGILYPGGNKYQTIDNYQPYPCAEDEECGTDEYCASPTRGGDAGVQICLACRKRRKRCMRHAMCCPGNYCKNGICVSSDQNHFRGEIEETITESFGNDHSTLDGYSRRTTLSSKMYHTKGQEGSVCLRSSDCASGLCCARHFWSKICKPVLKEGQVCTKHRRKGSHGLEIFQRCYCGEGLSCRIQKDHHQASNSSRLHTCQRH
- methodNotes: DKK1 binders on small-molecule microarrays, primary screen, biochemical, small-molecule microarray, 635 nm fluorescence scan (AID 1106);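 also: score merges emission near 667 nm with signal to noise over three replicate slides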
- cond: DKK1 binding, higher = more signal
readoutKind: composite z-score
# output: bare number, no unit

Here's what some known entries look like.
INSERT INTO assay_data (molecule, readoutnumber) VALUES
  ('CO[C@H]1COC(=O)CCC[C@@H](C)[C@H](OC)COC(=O)[C@@H](C)NC(=O)CC=C[C@@H]1C', 1.57),
  ('CCOC(=O)[C@H](Cc1ccccc1)NC(=O)CCC1CC(OC(=O)NCCc2ccc(F)cc2)CC2(CCCC(COC(=O)NCCOC)O2)O1 (some centres undefined)', 1.13),
  ('COc1ccc(O[C@@H]2[C@H](O)CO[C@@H]2C=Cc2ccccc2)cc1', 0.148);

Enquiry: Any idea what composite z-score came out for CO[C@H]1COC(=O)CC=C[C@H](C)[C@@H](OC)COC(=O)[C@@H](C)NC(=O)CC=C[C@@H]1C on Dickkopf-related protein 1 (Homo sapiens) (UniProt O94907)?
Return: 1.49

###

- methodNotes: compound binding in COS7 lysate, probe aLAP1, primary screen, cell lysate, small-molecule microarray (AID 1124);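 also: lysate comes from COS7 cells expressing LAP1 and is applied at 0.3 µg/mL; score merges spot fluorescence near 667 nm with signal-to-noise over triplicate slides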
- cond: probe aLAP1, fluorescence, higher = more signal
readoutKind: composite z-score
# output: bare number, no unit

Enquiry: Recorded composite z-score for CC(C)CON=C1C[C@@H](O)[C@@H](O)[C@@H]2[C@@H]3C(=O)N(c4ccc(F)cc4F)C(=O)[C@@H]3CC[C@H]12 , please?
Return: 0.311

Enquiry: Recorded composite z-score for C#CCCCON=C1C[C@@H](O)[C@@H](O)[C@@H]2[C@@H]3C(=O)N(CC)C(=O)[C@@H]3CC[C@@H]12 , please?
Return: -0.0523

Enquiry: Recorded composite z-score for CCOC(=O)NN=C1C[C@@H](O)[C@@H](O)[C@@H]2[C@@H]3C(=O)N(c4cccc(Oc5ccccc5)c4)C(=O)[C@@H]3CC[C@H]12 , please?
Return: 0.0682

Enquiry: Recorded composite z-score for CC(C)(C)N1C(=O)[C@H]2[C@H]3[C@H](O)[C@H](O)CC(=O)[C@H]3CC[C@H]2C1=O , please?
Return: 0.206
